target.entity: USP7, full-length, native C-Terminus (Homo sapiens, UniProt Q93009)
Construct: USP7, full-length, native C-Terminus, 0.2 nM
Sequence (Q93009 whole entry): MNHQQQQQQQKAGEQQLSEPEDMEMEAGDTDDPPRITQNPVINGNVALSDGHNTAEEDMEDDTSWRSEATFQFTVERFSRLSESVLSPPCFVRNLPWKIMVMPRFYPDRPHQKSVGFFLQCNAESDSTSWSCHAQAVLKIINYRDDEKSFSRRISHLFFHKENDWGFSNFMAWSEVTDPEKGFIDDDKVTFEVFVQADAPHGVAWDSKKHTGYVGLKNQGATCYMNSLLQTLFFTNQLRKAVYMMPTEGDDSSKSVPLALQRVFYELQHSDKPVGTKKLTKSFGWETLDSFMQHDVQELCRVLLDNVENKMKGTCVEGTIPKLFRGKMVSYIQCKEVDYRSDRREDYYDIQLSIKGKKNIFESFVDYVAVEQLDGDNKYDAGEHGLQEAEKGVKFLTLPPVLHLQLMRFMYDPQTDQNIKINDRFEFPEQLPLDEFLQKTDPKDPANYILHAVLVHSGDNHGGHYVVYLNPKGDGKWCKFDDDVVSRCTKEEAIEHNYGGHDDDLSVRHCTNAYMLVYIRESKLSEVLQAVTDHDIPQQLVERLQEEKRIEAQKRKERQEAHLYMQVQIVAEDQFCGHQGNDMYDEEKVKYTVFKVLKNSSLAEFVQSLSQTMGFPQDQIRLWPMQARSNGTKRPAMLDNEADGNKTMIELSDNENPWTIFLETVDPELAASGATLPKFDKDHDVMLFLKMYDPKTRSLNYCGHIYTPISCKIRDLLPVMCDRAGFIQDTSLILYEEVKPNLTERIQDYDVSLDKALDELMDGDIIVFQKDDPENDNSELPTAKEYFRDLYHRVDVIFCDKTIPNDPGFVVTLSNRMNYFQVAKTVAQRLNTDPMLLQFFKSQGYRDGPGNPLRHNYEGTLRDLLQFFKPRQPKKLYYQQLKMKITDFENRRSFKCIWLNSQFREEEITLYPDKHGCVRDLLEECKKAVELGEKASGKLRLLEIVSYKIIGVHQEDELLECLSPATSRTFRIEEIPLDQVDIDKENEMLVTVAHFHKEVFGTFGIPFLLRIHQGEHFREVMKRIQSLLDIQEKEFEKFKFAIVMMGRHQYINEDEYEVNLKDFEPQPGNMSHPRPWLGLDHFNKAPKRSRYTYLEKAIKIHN
assay.method.text: Biochemical USP7 assay with Ubiquitin-Rho110 substrate, compounds pre-incubated with USP7 (USP7_Ub-Rho preInc)
measurement.conditions: compounds pre-mixed with USP7, 1 hour incubation, before substrate; read-out: USP7 Ub-Rho preInc (IC50)
property.label: IC50 (µM)

INSERT INTO results (smiles_notation, property_label, units_of_measure, numeric_value) VALUES
  ('CCc1c(-c2ccc(O)cc2)cnc(N)c1-c1cccc(CN2CCOCC2)c1', 'IC50', 'µM', 145),
  ('CCc1c(-c2ccc(O)cc2)cnc(N)c1-c1ccc2cn[nH]c2c1', 'IC50', 'µM', 13.8),
  ('CCc1c(-c2ccc(C(=O)NC3CC3)cc2)cnc(N)c1-c1ccc(O)cc1', 'IC50', 'µM', 7.7);

1. CCc1c(-c2ccc(O)cc2)cnc(NC)c1-c1ccc(O)cc1
2. CCc1c(-c2cccc(C(N)=O)c2)cnc(N)c1-c1ccc(O)cc1
Exercise: Response body: label of entry with the larger IC50; valid values 1 , 2 . API: response body contains the label of the selected item.
Solution: 2

====

So I've got IC50 readings for UniProtKB Q93009, take a look.
property.label: IC50 (nM)

1. CCc1c(-c2ccc(C(=O)NC)cc2)cnc(N)c1-c1ccc(O)cc1
2. CCc1c(-c2ccc(C(N)=O)cc2)cnc(N)c1-c1ccc(O)cc1
Exercise: Sorting ascending by IC50, which comes first: 1 or 2 ? API: response body contains the label of the selected item.
Solution: 1
(1: 1400 nM, 2: 2900 nM)

====

target.entity: USP7, full-length, native C-Terminus (Homo sapiens)
Construct: USP7, full-length, native C-Terminus, 0.2 nM
assay.method.text: Biochemical USP7 assay with Ubiquitin-Rho110 substrate, compounds pre-incubated with USP7 (USP7_Ub-Rho preInc)
measurement.conditions: compounds pre-mixed with USP7, 1 hour incubation, before substrate; read-out: USP7 Ub-Rho preInc (IC50)
property.label: IC50 (µM)

Record excerpt, results attached:
INSERT INTO assay_data (smiles_notation, units_of_measure, numeric_value) VALUES
  ('CCc1c(-c2ccc(F)cc2)cnc(N)c1-c1ccc(O)cc1', 'µM', 19.9),
  ('CCc1c(-c2ccc3[nH]c(C)nc3c2)cnc(N)c1-c1ccc(O)cc1', 'µM', 13.5),
  ('CCc1c(-c2ccc(F)c(F)c2)cnc(N)c1-c1ccc(O)cc1', 'µM', 11.6),
  ('CCc1c(-c2ccc(O)c(C(N)=O)c2)cnc(N)c1-c1ccc(O)cc1', 'µM', 106);

1. CCc1c(-c2ccc(O)cc2)cnc(N)c1-c1ccc(O)cc1
2. CCc1c(-c2ccc(O)cc2)cnc(N)c1-c1ccc2[nH]nc(C)c2c1
3. CCc1c(-c2cnn(CC(C)C)c2)cnc(N)c1-c1ccc(O)cc1
4. CCc1c(-c2ccc(CNS(C)(=O)=O)cc2)cnc(N)c1-c1ccc(O)cc1
5. CCc1c(-c2cccc(NC(C)=O)c2)cnc(N)c1-c1ccc2cn[nH]c2c1
Exercise: Put these in order: smallest IC50 first, largest last. Response format: the labels, sorted as the prompt asks.
Solution: 1, 2, 4, 3, 5
(1: 4.6 µM, 2: 19.3 µM, 4: 34.4 µM, 3: 70.6 µM, 5: 136 µM)

A. CCc1c(-c2ccc(O)cc2)cnc(NCC2CC2)c1-c1ccc(O)cc1
B. CCc1c(-c2ccc(C)nc2)cnc(N)c1-c1ccc(O)cc1
C. CCc1c(-c2cccc(N3CCNCC3)c2)cnc(N)c1-c1ccc(O)cc1
Exercise: Order field: IC50 | Direction: descending (largest first) Response format: the labels, sorted as the prompt asks.
Solution: C, B, A
(C: 165 µM, B: 31.2 µM, A: 19.9 µM)

====

target.entity: USP5 (Homo sapiens)
Sequence (P45974 whole entry, species assumed): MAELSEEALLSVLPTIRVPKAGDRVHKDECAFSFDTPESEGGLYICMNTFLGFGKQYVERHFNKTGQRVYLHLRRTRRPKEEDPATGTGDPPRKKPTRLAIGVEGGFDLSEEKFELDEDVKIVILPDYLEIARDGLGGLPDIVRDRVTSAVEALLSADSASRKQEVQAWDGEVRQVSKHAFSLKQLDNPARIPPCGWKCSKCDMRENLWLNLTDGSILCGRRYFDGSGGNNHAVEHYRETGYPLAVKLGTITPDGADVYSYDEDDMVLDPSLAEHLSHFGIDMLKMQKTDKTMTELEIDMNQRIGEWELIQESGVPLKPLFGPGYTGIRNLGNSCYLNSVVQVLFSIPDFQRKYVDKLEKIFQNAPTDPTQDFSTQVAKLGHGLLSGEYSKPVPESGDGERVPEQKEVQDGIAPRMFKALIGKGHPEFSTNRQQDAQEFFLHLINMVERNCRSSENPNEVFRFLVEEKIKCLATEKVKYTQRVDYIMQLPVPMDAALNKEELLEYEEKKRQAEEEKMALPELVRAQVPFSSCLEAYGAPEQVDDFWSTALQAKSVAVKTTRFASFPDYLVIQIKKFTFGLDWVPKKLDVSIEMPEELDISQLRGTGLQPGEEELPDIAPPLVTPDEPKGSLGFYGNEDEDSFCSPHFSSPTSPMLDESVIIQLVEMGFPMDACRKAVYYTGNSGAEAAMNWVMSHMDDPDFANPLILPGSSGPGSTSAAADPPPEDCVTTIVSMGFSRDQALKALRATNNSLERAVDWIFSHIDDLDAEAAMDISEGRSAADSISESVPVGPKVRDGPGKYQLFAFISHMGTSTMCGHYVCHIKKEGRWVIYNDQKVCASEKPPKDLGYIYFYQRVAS
assay.method.text: Ub-Rho110 DUB assay, Table 2, USP5
property.label: pIC50
pIC50 is defined as minus the log10 of a concentration measured in mol/L.

Exercise: Retrieve pIC50 measured for CCc1c(-c2ccc3[nH]ncc3c2)cnc(N)c1-c1ccc(O)cc1 and print it.
Solution: 4.73

====

target.entity: USP7, full-length, native C-Terminus (Homo sapiens, UniProt Q93009)
Construct: USP7, full-length, native C-Terminus, 0.2 nM
assay.method.text: Biochemical USP7 assay with Ubiquitin-Rho110 substrate, compounds pre-incubated with USP7 (USP7_Ub-Rho preInc)
measurement.conditions: compounds pre-mixed with USP7, 1 hour incubation, before substrate; read-out: USP7 Ub-Rho preInc (IC50)
Procedure: Biochemical USP7 assays using Ubiquitin-Rho110 as a substrate: The final assay conditions were as follows: The Reaction Buffer consisted of: 50 mM Tris (pH 7.5), 0.01% (v/v) Triton X-100, 2.5 mM Dithiothreitol, 0.1% (w/v) bovine gamma globulin (Sigma cat #G5009-25G); USP7, full-length, native C-Terminus, 0.2 nM; the substrate, Ubiquitin-Rho110 (Boston Biochem cat #U-555), 1 uM. […]
property.label: IC50 (µM)

INSERT INTO assay_data (compound, target_entity, numeric_value) VALUES
  ('CCc1c(-c2ccc(C#N)c(F)c2)cnc(N)c1-c1ccc(O)cc1 [Compound 67]', 'USP7, full-length, native C-Terminus (Homo sapiens, UniProt Q93009)', 45);

1. CCc1c(-c2cccc(OC)c2)cnc(N)c1-c1ccc(O)cc1 [Compound 52]
2. CCc1c(-c2cccc(C(=O)N(C)C)c2)cnc(N)c1-c1ccc(O)cc1 [Compound 54]
Exercise: Response body: label of entry with the larger IC50; valid values 1 , 2 . API: response body contains the label of the selected item.
Solution: 2

====

target.entity: USP7, full-length, native C-Terminus (Homo sapiens, UniProt Q93009)
Construct: USP7, full-length, native C-Terminus, 0.2 nM
assay.method.text: Biochemical USP7 assay with Ubiquitin-Rho110 substrate, compounds pre-incubated with USP7 (USP7_Ub-Rho preInc)
measurement.conditions: compounds pre-mixed with USP7, 1 hour incubation, before substrate; read-out: USP7 Ub-Rho preInc (IC50)
pIC50: −log10 of the molar value.
property.label: pIC50

Record excerpt, results attached:
INSERT INTO assay_data (smiles_notation, property_label, numeric_value) VALUES
  ('CCc1c(-c2ccccc2F)cnc(N)c1-c1ccc(O)cc1', 'pIC50', 4.85),
  ('CCc1c(-c2ccc(C)cc2)cnc(N)c1-c1ccc(O)cc1', 'pIC50', 4.74),
  ('CCc1c(-c2ccc3cn[nH]c3c2)cnc(N)c1-c1ccc(O)cc1', 'pIC50', 5.14),
  ('CCc1c(-c2cccc(CN3CCOCC3)c2)cnc(N)c1-c1ccc(O)cc1', 'pIC50', 4.74),
  ('CCc1c(-c2cccc(C(F)F)c2)cnc(N)c1-c1ccc(O)cc1', 'pIC50', 5.11);

I. CCc1c(-c2cccc(C#N)c2)cnc(N)c1-c1ccc(O)cc1
II. CCc1c(-c2ccc(C(=O)N3CCOCC3)cc2)cnc(N)c1-c1ccc(O)cc1
III. CCc1c(-c2ccc(C#N)nc2)cnc(N)c1-c1ccc(O)cc1
Exercise: Put these in order: smallest pIC50 first, largest last. Response format: the labels, sorted as the prompt asks.
Solution: II, III, I
(II: 3.78, III: 4.41, I: 5.27)

====

target.entity: USP7, full-length, native C-Terminus (Homo sapiens, UniProt Q93009)
Construct: USP7, full-length, native C-Terminus, 0.2 nM
assay.method.text: Biochemical USP7 assay with Ubiquitin-Rho110 substrate, compounds pre-incubated with USP7 (USP7_Ub-Rho preInc)
measurement.conditions: compounds pre-mixed with USP7, 1 hour incubation, before substrate; read-out: USP7 Ub-Rho preInc (IC50)
property.label: IC50 (µM)

Record excerpt, results attached:
INSERT INTO assay_data (smiles_notation, target_entity, units_of_measure, numeric_value) VALUES
  ('CCc1c(-c2ccc(=O)[nH]c2)cnc(N)c1-c1ccc(O)cc1', 'USP7, full-length, native C-Terminus (Homo sapiens, UniProt Q93009)', 'µM', 93.3),
  ('CCc1c(-c2ccc(O)cc2)cnc(N)c1-c1cncc(C#N)c1', 'USP7, full-length, native C-Terminus (Homo sapiens, UniProt Q93009)', 'µM', 18.6),
  ('Nc1ncc(-c2ccc(O)cc2)c(C(F)(F)F)c1-c1ccc(O)cc1', 'USP7, full-length, native C-Terminus (Homo sapiens, UniProt Q93009)', 'µM', 7.1),
  ('CCc1c(-c2cccc(Cl)c2)cnc(N)c1-c1ccc(O)cc1', 'USP7, full-length, native C-Terminus (Homo sapiens, UniProt Q93009)', 'µM', 11),
  ('CCc1c(-c2ccc(O)cc2)cnc(N)c1-c1ccc(OC)cc1F', 'USP7, full-length, native C-Terminus (Homo sapiens, UniProt Q93009)', 'µM', 13),
  ('CCCNc1ncc(-c2ccc(O)cc2)c(CC)c1-c1ccc(O)cc1', 'USP7, full-length, native C-Terminus (Homo sapiens, UniProt Q93009)', 'µM', 10.1),
  ('CCc1c(-c2ccc(O)cc2)cnc(N)c1-c1cccc(NS(C)(=O)=O)c1', 'USP7, full-length, native C-Terminus (Homo sapiens, UniProt Q93009)', 'µM', 118),
  ('CCc1c(-c2ccc(Cl)cc2)cnc(N)c1-c1ccc(O)cc1', 'USP7, full-length, native C-Terminus (Homo sapiens, UniProt Q93009)', 'µM', 17.6);

A. CCc1c(-c2cccnc2)cnc(N)c1-c1ccc(O)cc1
B. CCc1c(-c2cccc(CC#N)c2)cnc(N)c1-c1ccc(O)cc1
Exercise: Sorting ascending by IC50, which comes first: A or B ? API: response body contains the label of the selected item.
Solution: B
(B: 18.3 µM, A: 41 µM)
